Every entry's value here was drawn from the supplement of paper PMC11908140.

B1: library; numbered along this chain (parent)
chain: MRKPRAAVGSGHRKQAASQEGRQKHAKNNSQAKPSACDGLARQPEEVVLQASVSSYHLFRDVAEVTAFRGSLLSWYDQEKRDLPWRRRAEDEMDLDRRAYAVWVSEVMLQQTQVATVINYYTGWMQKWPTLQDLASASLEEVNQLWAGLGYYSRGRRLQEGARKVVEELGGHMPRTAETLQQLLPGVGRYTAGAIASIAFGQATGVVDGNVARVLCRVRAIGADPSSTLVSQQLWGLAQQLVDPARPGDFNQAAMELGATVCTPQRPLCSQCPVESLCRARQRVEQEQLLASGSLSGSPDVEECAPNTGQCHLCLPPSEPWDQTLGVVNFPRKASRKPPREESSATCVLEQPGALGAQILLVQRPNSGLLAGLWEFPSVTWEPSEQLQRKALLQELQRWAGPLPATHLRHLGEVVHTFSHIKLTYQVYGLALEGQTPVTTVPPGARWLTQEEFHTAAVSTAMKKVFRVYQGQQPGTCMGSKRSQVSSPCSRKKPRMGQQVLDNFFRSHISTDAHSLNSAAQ

Variants of: B1
measurementDescription: 8OG:A repair function score (normalized; synonymous = 0, nonsense = -1) (normalized log-likelihood score); higher = more repair activity (WT-like);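 also: cells sorted at 72 h after reporter transfection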
appliedConditions: with 8OG:A DNA repair reporter (GFP) in HEK-293 MUTYH KO cells
Label Yes when 8OG:A repair function score is at or above -0.8; anything below gets No.

Has K80M a recorded 8OG:A repair function score greater than or equal to -0.8?
Yes

Assess whether reported 8OG:A repair function score for P339I sits at -0.8 or higher.
Yes

Tell me whether 8OG:A repair function score is at least -0.8 here: S197W
No

Exam item: decide whether the reported 8OG:A repair function score for A445W is at least -0.8.
Yes

Does the variant F250H have recorded 8OG:A repair function score that is -0.8 or more?
Yes

Has H57W a recorded 8OG:A repair function score greater than or equal to -0.8?
No

Textbook exercise: given the entry Q310G , state whether its 8OG:A repair function score is greater than or equal to -0.8.
Yes

Is reported 8OG:A repair function score greater than or equal to -0.8 here: T308P
Yes

Is 8OG:A repair function score for F200C at or above -0.8?
Yes

Please indicate if the recorded 8OG:A repair function score for V230E meets or exceeds -0.8.
No
